ASSAY INFO: Plasma concentrations during 24-hour continuous intravenous infusion
Format: in vivo, Sprague-Dawley rats
CONDITION DESCRIPTION: female, Sprague-Dawley, rat, plasma, iv, 10 mg/kg, female Sprague-Dawley rats; 24-hour intravenous infusion at 10 mg/kg; time 24 h; read-out: Plasma concentration, Mean
ENDPOINT NAME: concentration at 24 h

compound="O=C(O)c1cc(-c2ccc(C3CCNCC3)cc2)c2ccc(-c3ccc(C(F)(F)F)cc3)cc2c1 [KB-1801]" result="0.954 µg/mL"

----------
ASSAY INFO: Plasma concentrations and TK parameters, 72-hour continuous intravenous infusion
Assay type: in vivo, Sprague-Dawley rats
CONDITION DESCRIPTION: female, Sprague-Dawley, rat, plasma, iv, 100 mg/kg/day, female Sprague-Dawley rats; 72-hour intravenous infusion at 100 mg/kg/day; time 72 h; read-out: Plasma concentration, individual animal
ENDPOINT NAME: concentration at 72 h

compound_structure=O=C(O)c1cc(-c2ccc(C3CCNCC3)cc2)c2ccc(-c3ccc(C(F)(F)F)cc3)cc2c1 result="7110 ng/mL"

----------
ASSAY INFO: Plasma concentrations during 24-hour continuous intravenous infusion
Type: in vivo, Sprague-Dawley rats
CONDITION DESCRIPTION: male, Sprague-Dawley, rat, plasma, iv, 10 mg/kg, male Sprague-Dawley rats; 24-hour intravenous infusion at 10 mg/kg; time 2 h; read-out: Plasma concentration, individual animal
ENDPOINT NAME: concentration at 2 h (ng/mL)

compound_structure=O=C(O)c1cc(-c2ccc(C3CCNCC3)cc2)c2ccc(-c3ccc(C(F)(F)F)cc3)cc2c1 result_number=327

----------
ASSAY INFO: Plasma concentrations and TK parameters, 72-hour continuous intravenous infusion
Format: in vivo, Sprague-Dawley rats
CONDITION DESCRIPTION: female, Sprague-Dawley, rat, plasma, iv, 10 mg/kg/day, female Sprague-Dawley rats; 72-hour intravenous infusion at 10 mg/kg/day; time 78 h; read-out: Plasma concentration, Mean
ENDPOINT NAME: concentration at 78 h (ng/mL)

compound_structure=O=C(O)c1cc(-c2ccc(C3CCNCC3)cc2)c2ccc(-c3ccc(C(F)(F)F)cc3)cc2c1 result_number=147

----------
ASSAY INFO: Plasma concentrations and TK parameters, 72-hour continuous intravenous infusion
Assay type: in vivo, Sprague-Dawley rats
CONDITION DESCRIPTION: male, Sprague-Dawley, rat, plasma, iv, 10 mg/kg/day, male Sprague-Dawley rats; 72-hour intravenous infusion at 10 mg/kg/day; time 78 h; read-out: Plasma concentration, individual animal
Method: The safety and pharmacokinetics of PPTN (KB-1801) in rats receiving continuous intravenous injections of SBECD-containing solutions were analyzed. Three cohorts of six male and six female rats each were given continuous intravenous infusion of PPTN (KB-1801) at 10 mg/kg/day, 30 mg/kg/day or 100 mg/kg/day in a dosing solution containing PPTN at 0.25 mg/mL, 0.75 mg/mL or 2.5 mg/mL and SBECD at about 3.8%. Dosing volume was 40 mIkg/day. [table]
ENDPOINT NAME: concentration at 78 h (ng/mL)

compound="O=C(O)c1cc(-c2ccc(C3CCNCC3)cc2)c2ccc(-c3ccc(C(F)(F)F)cc3)cc2c1 [KB-1801]" result_number=249

----------
ASSAY INFO: Plasma concentrations during 24-hour continuous intravenous infusion
Type: in vivo, Sprague-Dawley rats
CONDITION DESCRIPTION: female, Sprague-Dawley, rat, plasma, iv, 10 mg/kg, female Sprague-Dawley rats; 24-hour intravenous infusion at 10 mg/kg; time 1 h; read-out: Plasma concentration, Mean
ENDPOINT NAME: concentration at 1 h (ng/mL)

compound="O=C(O)c1cc(-c2ccc(C3CCNCC3)cc2)c2ccc(-c3ccc(C(F)(F)F)cc3)cc2c1 [KB-1801]" endpoint_name="concentration at 1 h" result_number=216

----------
ASSAY INFO: Plasma concentrations during 24-hour continuous intravenous infusion
Assay type: in vivo, Sprague-Dawley rats
CONDITION DESCRIPTION: female, Sprague-Dawley, rat, plasma, iv, 30 mg/kg, female Sprague-Dawley rats; 24-hour intravenous infusion at 30 mg/kg; time 4 h; read-out: Plasma concentration, Mean
ENDPOINT NAME: concentration at 4 h

compound_structure=O=C(O)c1cc(-c2ccc(C3CCNCC3)cc2)c2ccc(-c3ccc(C(F)(F)F)cc3)cc2c1 endpoint_name="concentration at 4 h" result="1530 ng/mL"

----------
ASSAY INFO: Plasma concentrations and TK parameters, 72-hour continuous intravenous infusion
Format: in vivo, Sprague-Dawley rats
CONDITION DESCRIPTION: male, Sprague-Dawley, rat, plasma, iv, 100 mg/kg, male Sprague-Dawley rats; 72-hour intravenous infusion at 100 mg/kg; time 24 h; read-out: Plasma concentration, individual animal
ENDPOINT NAME: concentration at 24 h

molecule="O=C(O)c1cc(-c2ccc(C3CCNCC3)cc2)c2ccc(-c3ccc(C(F)(F)F)cc3)cc2c1 [KB-1801]" result="10300 ng/mL"

----------
ASSAY INFO: Plasma concentrations during 24-hour continuous intravenous infusion
Format: in vivo, Sprague-Dawley rats
CONDITION DESCRIPTION: male, Sprague-Dawley, rat, plasma, iv, 100 mg/kg, male Sprague-Dawley rats; 24-hour intravenous infusion at 100 mg/kg; time 24 h; read-out: Plasma concentration, individual animal
ENDPOINT NAME: concentration at 24 h (ng/mL)

compound="O=C(O)c1cc(-c2ccc(C3CCNCC3)cc2)c2ccc(-c3ccc(C(F)(F)F)cc3)cc2c1 [KB-1801]" endpoint_name="concentration at 24 h" result_number=10700

----------
ASSAY INFO: Plasma concentrations and TK parameters, 72-hour continuous intravenous infusion
Type: in vivo, Sprague-Dawley rats
CONDITION DESCRIPTION: male, Sprague-Dawley, rat, plasma, iv, 30 mg/kg/day, male Sprague-Dawley rats; 72-hour intravenous infusion at 30 mg/kg/day; time 72 h; read-out: Plasma concentration, Mean
ENDPOINT NAME: concentration at 72 h (ng/mL)

compound_structure=O=C(O)c1cc(-c2ccc(C3CCNCC3)cc2)c2ccc(-c3ccc(C(F)(F)F)cc3)cc2c1 result_number=1670

----------
ASSAY INFO: Plasma concentrations and TK parameters, 72-hour continuous intravenous infusion
Format: in vivo, Sprague-Dawley rats
CONDITION DESCRIPTION: female, Sprague-Dawley, rat, plasma, iv, 30 mg/kg/day, female Sprague-Dawley rats; 72-hour intravenous infusion at 30 mg/kg/day; time 24 h; read-out: Plasma concentration, Mean
ENDPOINT NAME: concentration at 24 h (ng/mL)

compound_structure=O=C(O)c1cc(-c2ccc(C3CCNCC3)cc2)c2ccc(-c3ccc(C(F)(F)F)cc3)cc2c1 result_number=2340

----------
ASSAY INFO: Plasma concentrations during 24-hour continuous intravenous infusion
Assay type: in vivo, Sprague-Dawley rats
CONDITION DESCRIPTION: female, Sprague-Dawley, rat, plasma, iv, 30 mg/kg, female Sprague-Dawley rats; 24-hour intravenous infusion at 30 mg/kg; time 8 h; read-out: Plasma concentration, Mean
ENDPOINT NAME: concentration at 8 h (ng/mL)

compound_structure=O=C(O)c1cc(-c2ccc(C3CCNCC3)cc2)c2ccc(-c3ccc(C(F)(F)F)cc3)cc2c1 result_number=1730

----------
ASSAY INFO: Plasma concentrations and TK parameters, 72-hour continuous intravenous infusion
Type: in vivo, Sprague-Dawley rats
CONDITION DESCRIPTION: female, Sprague-Dawley, rat, plasma, iv, 100 mg/kg/day, female Sprague-Dawley rats; 72-hour intravenous infusion at 100 mg/kg/day; time 84 h; read-out: Plasma concentration, Mean
ENDPOINT NAME: concentration at 84 h (ng/mL)

compound_structure=O=C(O)c1cc(-c2ccc(C3CCNCC3)cc2)c2ccc(-c3ccc(C(F)(F)F)cc3)cc2c1 result_number=987

----------
ASSAY INFO: Plasma concentrations during 24-hour continuous intravenous infusion
Type: in vivo, Sprague-Dawley rats
CONDITION DESCRIPTION: female, Sprague-Dawley, rat, plasma, iv, 10 mg/kg, female Sprague-Dawley rats; 24-hour intravenous infusion at 10 mg/kg; time 4 h; read-out: Plasma concentration, Mean
ENDPOINT NAME: concentration at 4 h (ng/mL)

compound_structure=O=C(O)c1cc(-c2ccc(C3CCNCC3)cc2)c2ccc(-c3ccc(C(F)(F)F)cc3)cc2c1 result_number=426

----------
ASSAY INFO: Plasma concentrations and TK parameters, 72-hour continuous intravenous infusion
Format: in vivo, Sprague-Dawley rats
CONDITION DESCRIPTION: male, Sprague-Dawley, rat, plasma, iv, 10 mg/kg/day, male Sprague-Dawley rats; 72-hour intravenous infusion at 10 mg/kg/day; time 72 h; read-out: Plasma concentration, individual animal
Description: The safety and pharmacokinetics of PPTN (KB-1801) in rats receiving continuous intravenous injections of SBECD-containing solutions were analyzed. Three cohorts of six male and six female rats each were given continuous intravenous infusion of PPTN (KB-1801) at 10 mg/kg/day, 30 mg/kg/day or 100 mg/kg/day in a dosing solution containing PPTN at 0.25 mg/mL, 0.75 mg/mL or 2.5 mg/mL and SBECD at about 3.8%. Dosing volume was 40 mIkg/day. [table]
ENDPOINT NAME: concentration at 72 h (ng/mL)

compound_structure=O=C(O)c1cc(-c2ccc(C3CCNCC3)cc2)c2ccc(-c3ccc(C(F)(F)F)cc3)cc2c1 endpoint_name="concentration at 72 h" result_number=618

From: patent US20220202799A1
